# Test system: CAKI-1
# Experimental Details: NCI tumour cell line growth inhibition, 48 h
The source made the active and inactive calls. No stated cut-off is given here; in the data, active = GI50 up to about 1.1 µM and inactive = higher. Residues, ends and D or L forms follow the SMILES beside them.
Your answer must be one of the following: label 1 for active, label 0 for inactive

Take a look at these entries with their results.
COc1ccccc1NC(=O)/C(=C/c1ccccc1)C(C)=O    label 0
Nc1nc(Cl)cc(NCC2(CO)CC=CC2)n1    label 0
CC(=O)OCC1=C(C)C(OC(=O)C(OC(C)=O)[C@@H](NC(=O)c2ccccc2)c2ccccc2)CCC1(C)C (stereo not given in full)    label 0
COc1c(OC(C)=O)c(OC(C)=O)cc2c1-c1ccc(OC)c(=O)cc1C(NC(C)=O)CC2 (stereo not given)    label 1
CC(C)(C)C1=C(Br)C(O)(C(C)(C)C)OP1(=O)c1ccccc1 (stereo not given)    label 0
CC(=O)NC(CO)C(=O)NC(Cc1ccc(O)cc1)C(=O)NCC(N)=O (stereo not drawn) (Ac-Ser-Tyr-Gly-NH2; configuration not given here)    label 0
CC1(C)CC2C=C(C=O)C3(C=O)CC3(C)C2C1 (stereo not given)    label 0
C/C(=C\CCC1=CC(=O)OC1)CC[C@@H]1[C@H]2C(=O)CC(C)[C@@]3(C)CC[C@]1(C)[C@@]23C (stereo not given in full)    label 0
C=C1C(=O)O[C@@H]2C[C@@H](C)[C@@H]3[C@@H](OC4OC(COC(C)=O)C(O)C(O)C4O)CC(=O)[C@@]3(C)C[C@H]12 (stereo not given in full)    label 1
O=c1c2ccccc2nc(-c2ccccc2)n1O    label 0

Query string: Please share the test call associated with "Cc1cc(C)nc(NS(=O)(=O)c2ccc(NC(=O)c3ccc4nc5ccccc5c(Nc5ccc(S(N)(=O)=O)cc5)c4c3)cc2)n1" .
Result string: label 0

Query string: Please share the test call associated with "CN(C)/N=N/c1cccc(C(N)=O)c1" .
Result string: label 0

Query string: Please share the test call associated with O=C(CC(=O)C(=O)Nc1ccccc1)CC(c1ccccc1)c1c(O)c2ccccc2oc1=O (stereo not given) .
Result string: label 0

Query string: Please share the test call associated with CCOC(=O)CN1C(=O)NC(C)(c2ccccc2)C1=O (stereo not given) .
Result string: label 0

Query string: Please share the test call associated with "c1ccc2c(c1)nc1n2sc2nc3ccccc3n21" .
Result string: label 0

Query string: Please share the test call associated with "S=C(CSc1ccccc1)Nc1cccc2ccccc12" .
Result string: label 0

Query string: Please share the test call associated with "N#Cc1c(C#N)c(-c2ccco2)n(-c2ccccc2)c1N" .
Result string: label 0

Query string: Please share the test call associated with COC1OC(=O)[C@H]2O[N+]([O-])=C(C)[C@@H]12 (stereo not given in full) .
Result string: label 0

###

# Test system: CCRF-CEM
# Experimental Details: NCI tumour cell line growth inhibition, 48 h
The source made the active and inactive calls. No stated cut-off is given here; in the data, active = GI50 up to about 1.1 µM and inactive = higher.
Measure Name: GI50

Reference set, count: 4
CC1(C)CCC(=O)NC1CC(=O)CC1NC(=O)CCC1(C)C (stereo not given)    > 100 µM (inactive)
CC1(C)COC2C(N(Cc3ccccc3)Cc3ccccc3)C(=O)N21 (stereo not given)    32.7 µM (inactive)
C=C(Br)C(Br)(CCl)CCC(Cl)C(C)C.C=C(Cl)C(Br)(CCl)CCC(Cl)C(C)C (stereo not given)    0.254 µM (active)
COc1ccc(NC(=O)CC/C(CC(=O)c2ccccc2Cl)=N\Nc2nnc(C)n2N)cc1    > 100 µM (inactive)

Each of the following entries comes with a recorded value; kindly state GI50 for each.
1. CC(=O)OCc1cc2ccccc2nc1C(Br)(Br)Br
2. OC(CC(CC(O)(C(F)(F)F)C(F)(F)F)=NN=C(CC(O)(C(F)(F)F)C(F)(F)F)CC(O)(C(F)(F)F)C(F)(F)F)(C(F)(F)F)C(F)(F)F
3. CCOC(=O)CN1C(=O)NC(C)(c2ccccc2)C1=O (stereo not given)
4. CSC1=N/C(=C\c2cccs2)C(=O)N1CN1CCOCC1
5. Cc1cn(Cc2cnnn2CC2OC(n3cc(C)c(=O)[nH]c3=O)CC2O)c(=O)[nH]c1=O (stereo not given)
6. O=c1c2ccccc2nc(-c2ccccc2Cl)n1NC1OC(CO)C(O)C(O)C1O (stereo not given)

Result string:
1. 10.9 µM (inactive)
2. > 10 µM (inactive)
3. > 100 µM (inactive)
4. 27.3 µM (inactive)
5. > 100 µM (inactive)
6. > 100 µM (inactive)

Each of the following entries comes with a recorded value; kindly state GI50 for each.
1. C=CCc1cc(-c2cc(CC=C)c(O)c(CN(CCCl)CCCl)c2)cc(CN(CCCl)CCCl)c1O
2. O=C(O/N=C1/CCCC/C1=C\c1ccccc1)c1ccccc1

Result string:
3.03 µM (inactive)
36.8 µM (inactive)

Each of the following entries comes with a recorded value; kindly state GI50 for each.
1. Cc1c2ncccc2c(C)c2c1[nH]c1ccc(O)cc12
2. CC(C)(C)C1=C(Br)C(O)(C(C)(C)C)OP1(=O)c1ccccc1 (stereo not given)
3. O=C1NC(=O)C(c2c[nH]c3ccccc23)=C1c1cn(C(c2ccccc2)(c2ccccc2)c2ccccc2)cn1
4. CC1CCC/C1=C(/I)C(=O)c1ccccc1 (stereo not given)
5. CCC/C(Cl)=N\OC(=O)Nc1ccc(F)c([N+](=O)[O-])c1

Result string:
1: 1.33 µM (inactive); 2: > 100 µM (inactive); 3: 3.98 µM (inactive); 4: 30.4 µM (inactive); 5: 3.74 µM (inactive)

Each of the following entries comes with a recorded value; kindly state GI50 for each.
1. COc1cc2c(cc1OC)C1CCc3ccccc3CN1CC2 (stereo not given)
2. C#C[C@]1(O)CC[C@H]2[C@@H]3CCC4=C/C(=N/CCOC(=O)c5cccc6cc7ccccc7nc56)CC[C@@H]4[C@H]3CC[C@@]21C
3. O=C(c1cccs1)N(C(=S)OC12CC3CC(CC(C3)C1)C2)c1ccccc1

Result string:
["> 100 µM (inactive)", "> 100 µM (inactive)", "15.3 µM (inactive)"]
